test system: MDA-MB-231 breast; assay: NCI tumour cell line growth inhibition, 48 h
PROPERTY_MEASURED: TGI (µM)
One number for each entry, in µM.

# COMPOUND, TGI [µM]
records = [
    ("N#C/C(=C\\c1ccc(Br)cc1)c1nc(-c2cc3ccccc3oc2=O)cs1", 20.6),
    ("Oc1ccc(N=Nc2ccc(N=Nc3ccccc3)cc2)cc1", 7.09),
    ("CC(C)(C)[Si](C)(C)OCC#C[C@@]1(O)CCCCC1CC(Sc1ccccc1)Sc1ccccc1 (some centres undefined)", 34.7),
]

Look up TGI for the entries below, preserving their order.
1. CC(C)c1ccc2[nH]c(O)c(C3=Nc4ccccc4C3=O)c2c1
2. COC(=O)c1cc2oc(/C=C3\SC(=S)N(NC(C)=O)C3=O)cc2n1Cc1ccccc1
3. CC(C)(C)N(Cc1ccoc1)C(=O)/C=C\S(=O)c1ccccc1 (centres undefined)
4. Nc1ccccc1OCc1cc(=O)c(OCc2ccccc2)co1
5. Clc1nc(Cl)c(Cc2ccccc2)c(Cl)n1

Response:
[48, 17.4, 42.3, 55.8, 14.9]

These entries and their values trace back to PubChem BioAssay (NCI).
